- tgt: Rap guanine nucleotide exchange factor 4 (Homo sapiens) (UniProt Q8WZA2)
- Sequence (Q8WZA2 whole entry, looked up): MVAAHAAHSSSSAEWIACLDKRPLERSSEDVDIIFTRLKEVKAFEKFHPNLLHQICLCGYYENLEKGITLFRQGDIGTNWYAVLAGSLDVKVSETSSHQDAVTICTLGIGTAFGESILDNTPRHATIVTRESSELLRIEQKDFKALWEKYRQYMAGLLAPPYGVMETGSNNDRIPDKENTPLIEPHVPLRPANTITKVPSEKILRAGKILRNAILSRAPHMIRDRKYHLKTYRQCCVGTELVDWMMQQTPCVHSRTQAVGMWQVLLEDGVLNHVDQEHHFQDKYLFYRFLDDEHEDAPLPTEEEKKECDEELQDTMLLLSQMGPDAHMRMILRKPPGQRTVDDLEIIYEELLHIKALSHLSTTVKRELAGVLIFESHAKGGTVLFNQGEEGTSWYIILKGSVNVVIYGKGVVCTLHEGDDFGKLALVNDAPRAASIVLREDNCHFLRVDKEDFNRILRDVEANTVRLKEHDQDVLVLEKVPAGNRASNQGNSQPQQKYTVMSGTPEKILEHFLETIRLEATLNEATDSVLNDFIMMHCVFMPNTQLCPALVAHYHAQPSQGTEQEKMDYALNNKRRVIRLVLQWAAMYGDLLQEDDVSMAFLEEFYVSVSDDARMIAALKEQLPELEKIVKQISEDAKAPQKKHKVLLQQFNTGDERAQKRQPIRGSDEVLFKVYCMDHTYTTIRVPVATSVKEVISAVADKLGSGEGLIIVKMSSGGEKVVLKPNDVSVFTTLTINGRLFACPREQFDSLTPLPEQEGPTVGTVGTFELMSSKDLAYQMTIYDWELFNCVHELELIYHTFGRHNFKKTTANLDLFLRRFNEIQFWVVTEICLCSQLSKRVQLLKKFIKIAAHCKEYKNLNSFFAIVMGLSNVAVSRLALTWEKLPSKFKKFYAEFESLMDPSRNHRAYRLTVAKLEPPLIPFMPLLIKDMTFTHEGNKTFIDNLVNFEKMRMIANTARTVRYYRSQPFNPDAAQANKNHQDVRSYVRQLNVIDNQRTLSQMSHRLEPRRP
- testProtocol: Confirmatory qHTS for antagonist of cAMP-regulated guanine nucleotide exchange factor 4 (EPAC2) (AID 1645885); also: nearly all actives have a fitted effect of over 25% in size
- experimentalContext: EPAC2 Rap1B-BODIPY-GDP exchange fluorescence, biochemical; series mostly up to 12.7 µM
Results filed as inconclusive are left out. The source made the active and inactive calls. Calls follow the shape of the dose curve; as a rule, active = well fitted inhibition curve with a large enough effect; inconclusive = small, poorly fitted or top-dose-only effect; inactive = no such curve, though single readings can be large or run the other way.
Tick one outcome: active, inactive

compound	tgt	className
CCOc1ccc(CCNC(=O)c2cccc(S(=O)(=O)N3CCCCC3)c2)cc1OCC	Rap guanine nucleotide exchange factor 4 (Homo sapiens) (UniProt Q8WZA2)	inactive

Please share the test call associated with Cc1cc2ccccn2c1C(=O)c1ccccc1F .
inactive

Fill in: this test's call for NC(=O)COC(=O)c1ccc(Cl)c(S(=O)(=O)N(Cc2ccccc2)c2ccc(Cl)cc2)c1 is ___
inactive

Assay outcome for O=C(Cn1nnc2sc(-c3ccccc3)cc2c1=O)Nc1cccc(C(F)(F)F)c1 : what was it?
inactive

Assay result, entry Cc1nc(=O)c(-c2ccccc2)c(C)n1CCCCCC(=O)O — outcome?
inactive

Per the assay record, what outcome was assigned to O=c1[nH]c(Nc2ccccc2)cc2ccccc12 ?
inactive

Which outcome was entered for the compound COc1ccc(S(=O)(=O)Nc2ccc(OCC(=O)O)cc2)c2ccccc12 in this test?
active

Tell me the recorded outcome of this test for CCCC(=O)O[C@@H]1C[C@@H](C)N(C(=O)c2ccccc2)c2ccc(C)cc21 .
inactive

* * *

- tgt: Rap guanine nucleotide exchange factor 3 (Homo sapiens)
- testProtocol: Confirmatory qHTS for agonist of cAMP-regulated guanine nucleotide exchange factor 3 (EPAC1) (AID 1645881); also: nearly all actives have a fitted effect of over 75% in size; also: potency is read from the fitted curve at half-maximal effect;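 as to activation: EPAC1 catalysed release of BODIPY-GDP from Rap1B seen as fluorescence loss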
- experimentalContext: EPAC1 Rap1B BODIPY-GDP exchange fluorescence; series mostly up to 154 µM
Results filed as inconclusive are left out. Activity calls are given as the source filed them. The call rests on the fitted dose curve; in most records, active means well fitted activation curve with a large enough effect; inconclusive means small, poorly fitted or top-dose-only effect; inactive means no such curve, though single readings can be large or run the other way.
reportedEndpoint: Potency

Example results:
compound	endpointValue
COc1ccc(N2CCN(C3CCCCC3NS(=O)(=O)c3ccccc3)CC2)cc1 (stereo not given)	inactive
CCCCn1c(N)c(N(CC(C)C)C(=O)C2CCN(C(=O)c3ccc(Cl)cc3)CC2)c(=O)[nH]c1=O	inactive
COc1cccc2sc(N3CCN(c4nc5ccccc5s4)CC3)nc12	inactive
Cc1ccc(C)c(N(C)C(=O)c2cn(C)c(=O)c3ccccc23)c1	inactive

Fill in: Rap guanine nucleotide exchange factor 3 (Homo sapiens) Potency for Cc1cc(C)c(C(=O)c2cccs2)c(C)c1 = inactive

Case CN(C)c1ccc(/C=C/C(=O)c2ccc3c(c2)OCO3)cc1 , Rap guanine nucleotide exchange factor 3 (Homo sapiens), Potency recorded as 112 µM (active)

Lab entry: Rap guanine nucleotide exchange factor 3 (Homo sapiens) assay, compound Clc1ccc(CSc2nncn3c2cc2occc23)cc1 , Potency = inactive

Reported Rap guanine nucleotide exchange factor 3 (Homo sapiens) Potency for item CC(=O)N1CCc2cc(CNC(=O)c3ccccc3Br)ccc21 was inactive

Potency on Rap guanine nucleotide exchange factor 3 (Homo sapiens) for CCN1C/C(=C/c2ccc(N3CCOCC3)cc2)C(=O)/C(=C/c2ccc(N3CCOCC3)cc2)C1 is 100 µM (active)

Rap guanine nucleotide exchange factor 3 (Homo sapiens) data for COc1ccc(CCNC(=O)CSc2nc3nc(C)c(Cc4ccc(C)cc4)c(C)n3n2)cc1OC ; its Potency: inactive

* * *

- System: Dd2
- testProtocol: qHTS profiling for inhibitors of Plasmodium falciparum proliferation (AID 504749); also: nearly all actives have a fitted effect of over 60% in size
- experimentalContext: P. falciparum in erythrocytes, SYBR Green DNA, 72 h; series mostly up to 12.8 µM
Inconclusive results are not listed. Activity calls are given as the source filed them. Calls follow the shape of the dose curve; as a rule, active = well fitted inhibition curve with a large enough effect; inconclusive = small, poorly fitted or top-dose-only effect; inactive = flat fitted curve, though single readings scatter.
Please answer using one outcome listed in active, inactive

// below: answered molecules
molecule	tgt	className
CC(=O)[C@@]1(O)CC[C@H]2[C@H]3C[C@@H](C)C4=CC(=O)C=C[C@]4(C)[C@@]3(F)[C@@H](O)C[C@]21C	Dd2	inactive
C[C@H]1CC[C@]2(OC1)O[C@@H]1C[C@@H]3[C@@H]4CC[C@H]5C[C@@H](O)CC[C@]5(C)[C@@H]4CC(=O)[C@@]3(C)[C@H]1[C@@H]2C	Dd2	inactive
CC(=O)OCC(=O)[C@@]1(O)[C@H](C)C[C@@H]2[C@H]3CCC4=CC(=O)C=C[C@]4(C)[C@]3(F)[C@@H](O)C[C@@]21C	Dd2	inactive
NC(=O)c1ccc[n+]([C@@H]2O[C@H](COP(=O)([O-])OP(=O)(O)OC[C@H]3O[C@@H](n4cnc5c(N)ncnc54)[C@@H](O)[C@@H]3O)[C@@H](O)[C@@H]2O)c1	Dd2	inactive
CO[C@H]1[C@@H](OC(N)=O)[C@H](O)[C@@H](Oc2ccc3c(O)c(NC(=O)c4ccc(O)c(CC=C(C)C)c4)c(=O)oc3c2C)OC1(C)C	Dd2	inactive
CO[C@@H]1C[C@H](O[C@H]2[C@@H](C)[C@H](O[C@@H]3O[C@@H](C)C[C@@H](N(C)C)[C@@H]3OC(C)=O)[C@H](C)C[C@]3(CO3)C(=O)[C@H](C)[C@H](OC(C)=O)[C@H](C)[C@H](C)OC(=O)[C@@H]2C)O[C@H](C)[C@@H]1OC(C)=O	Dd2	inactive

Hi, sorry to bother you, what did the test record for O=C(OC[C@@H](O)CO)c1ccccc1Nc1ccnc2cc(Cl)ccc12 ?
inactive

Which outcome did this test record for the molecule Clc1ccc([C@H](Cn2ccnc2)OCc2c(Cl)cccc2Cl)c(Cl)c1 ?
active

Please indicate how the test categorized CC1(C)OC2CO[C@]3(COS(N)(=O)=O)OC(C)(C)OC3C2O1 (some centres not stated) .
inactive

What is the recorded call for this molecule in the test? CC(=O)O[C@]1(C(C)=O)CC[C@@H]2[C@@H]3C=C(C)C4=CC(=O)CC[C@@]4(C)[C@H]3CC[C@]21C
inactive

So what was the verdict on COc1ccccc1OC[C@H](O)CO in this test?
inactive

I would be grateful if you could indicate the recorded call for C[N+]12CCC(CC1)[C@@H](OC(=O)C(O)(c1ccccc1)c1ccccc1)C2 .
inactive

Dear all, I need the recorded test outcome for CC(C)Oc1ccc2c(=O)cc(-c3ccccc3)oc2c1 , thank you.
inactive

Called result for CC(=O)[C@]1(O)CCC2C3C=C(Cl)C4=CC(=O)C5CC5[C@@]4(C)C3CC[C@]21C (some centres not stated)
inactive

Look up the recorded call for COc1ccc2cc1Oc1ccc(cc1)CC1c3c(cc4c(c3Oc3cc5c(cc3OC)CCN(C)C5C2)OCO4)CCN1C (configuration not stated) in this test.
active

In this assay, the call recorded for CN(C/C=C\c1ccccc1)Cc1cccc2ccccc12 was what?
inactive
